molecular target: recombinant human mGluR2 (Homo sapiens, UniProt Q14416); experiment: FLIPR Ca2+ mobilization assay, potentiation of mGluR2; settings: CHO dhfr- cells expressing human mGluR2 and Gα16, EC20 glutamate (900 nM)
Sequence (Q14416 19-872): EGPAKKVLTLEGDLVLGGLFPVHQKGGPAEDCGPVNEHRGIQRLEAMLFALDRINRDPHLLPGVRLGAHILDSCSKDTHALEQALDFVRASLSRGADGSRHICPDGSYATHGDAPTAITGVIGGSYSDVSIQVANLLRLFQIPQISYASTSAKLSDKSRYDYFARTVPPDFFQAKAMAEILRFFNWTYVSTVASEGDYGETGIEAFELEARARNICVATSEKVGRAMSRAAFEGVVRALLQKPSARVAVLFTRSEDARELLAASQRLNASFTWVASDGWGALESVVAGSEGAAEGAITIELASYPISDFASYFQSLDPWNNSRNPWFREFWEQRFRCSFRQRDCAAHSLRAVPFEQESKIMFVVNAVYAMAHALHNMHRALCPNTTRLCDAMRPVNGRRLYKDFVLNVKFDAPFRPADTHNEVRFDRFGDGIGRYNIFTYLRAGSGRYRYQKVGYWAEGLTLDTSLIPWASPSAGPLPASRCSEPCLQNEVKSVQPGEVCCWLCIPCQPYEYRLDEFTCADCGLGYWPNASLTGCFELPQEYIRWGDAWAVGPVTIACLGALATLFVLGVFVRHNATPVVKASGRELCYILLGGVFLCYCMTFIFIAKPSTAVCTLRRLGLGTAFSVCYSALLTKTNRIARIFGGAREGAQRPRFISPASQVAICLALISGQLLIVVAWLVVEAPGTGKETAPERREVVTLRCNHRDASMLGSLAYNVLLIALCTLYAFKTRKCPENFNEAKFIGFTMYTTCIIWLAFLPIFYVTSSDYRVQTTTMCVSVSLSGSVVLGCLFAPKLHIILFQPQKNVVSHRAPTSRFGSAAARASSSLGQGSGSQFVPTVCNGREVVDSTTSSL
pEC50: −log10 of the molar value.
Parameter threshold = 8. Response is condition met when pEC50 meets or exceeds it, else condition not met.

Say whether CC(C)(O)c1ccc(-c2ccc3c(nnn3CC3CC3)c2C(F)(F)F)cc1 shows pEC50 of 8 or more.
condition met

Does the compound OCc1ccc(-c2ccc3c(nnn3CC3CC3)c2C(F)(F)F)c(F)n1 have recorded pEC50 that is 8 or more?
condition not met

Given the entry OCC(O)c1ccc(-c2ccc3c(nnn3CC3CC3)c2C(F)(F)F)c(F)n1 (centres unmarked) , answer whether its pEC50 meets or surpasses 8.
condition not met

Assess whether reported pEC50 for OC1CCOc2cc(-c3ccc4c(nnn4CC4CC4)c3C(F)(F)F)ccc21 (centres unmarked) sits at 8 or higher.
condition met

Is pEC50 at least 8? Consider COC(C)c1ccc(-c2ccc3c(nnn3CC3CC3)c2C(F)(F)F)cc1 (centres unmarked)
condition not met

---

biological target: recombinant human mGluR2 (Homo sapiens, UniProt Q14416); assay: FLIPR Ca2+ mobilization assay, potentiation of mGluR2; conditions: CHO dhfr- cells expressing human mGluR2 and Gα16, EC20 glutamate (900 nM)
READOUT LABEL: EC50 (nM)
Write the value in nM as a bare number.

For reference, reported EC50 for COC(=O)c1ccc(-c2ccc3c(nnn3CC3CC3)c2C(F)(F)F)c(F)c1 [Example 3] stands at 15

New cases:
response.value for OCc1ccc(-c2ccc3c(nnn3CC3CC3)c2C(F)(F)F)cc1 [Example 2] (field: EC50) = 11

Note to self: EC50 recorded for CC(O)c1ccc(-c2ccc3c(nnn3CC3CC3)c2C(F)(F)F)cc1 (stereo not drawn) [Example 5] was 8.3
